These data points were gathered from PubChem BioAssay (NCI).

Test system: COLO 205 colon
Assay: NCI-60 one-dose screen, 48 h (100 = growth as untreated, 0 = no growth, -100 = all killed)
Conditions: 10 µM unless noted
This is part of a sample that, as a whole, favours compounds with a hit. Of some 83,000 tested, about 20% had one in any assay. Active and inactive are the calls of the source. How the source made its calls: active means growth percent below 10; inactive means the rest.
Can you tell me growth for the items I'm about to list?

compound: COc1cc(Nc2cc(C)nc(N3CCN(c4ccnc5cc(Cl)ccc45)CC3)n2)cc(OC)c1
growth: -24.4% (active)
--
compound: Cc1cc(Nc2ccc(C)c(Cl)c2)n2nc(C(F)(F)F)nc2n1
growth: 38.3% (inactive)
--
compound: COc1ccc(O)c(N=Nc2nccs2)c1
growth: 94.8% (inactive)

Would you be so kind as to report growth for each listed record?
1. CC1C(/C=N/Nc2ccccc2)C(C#N)(C#N)C1(C#N)C#N (stereo unspecified)
2. COc1ccc(C(=O)COc2cccc(/C=C3\CSc4ccccc4C3=O)c2)cc1
3. FC(F)(F)c1nc2c(NCc3ccc(-c4ccccc4)cc3)cccc2[nH]1

105% (inactive)
105% (inactive)
90.3% (inactive)
